system: T1, human LRRC33-proTGFβ1 complex (human, UniProt P01137 30-390; Q86YC3 19-650)
T1 construct: also called hLRRC33-proTGFβ1; hLRRC33
T1 sequence (P01137 30-390 limits assumed, chain 1 of 2): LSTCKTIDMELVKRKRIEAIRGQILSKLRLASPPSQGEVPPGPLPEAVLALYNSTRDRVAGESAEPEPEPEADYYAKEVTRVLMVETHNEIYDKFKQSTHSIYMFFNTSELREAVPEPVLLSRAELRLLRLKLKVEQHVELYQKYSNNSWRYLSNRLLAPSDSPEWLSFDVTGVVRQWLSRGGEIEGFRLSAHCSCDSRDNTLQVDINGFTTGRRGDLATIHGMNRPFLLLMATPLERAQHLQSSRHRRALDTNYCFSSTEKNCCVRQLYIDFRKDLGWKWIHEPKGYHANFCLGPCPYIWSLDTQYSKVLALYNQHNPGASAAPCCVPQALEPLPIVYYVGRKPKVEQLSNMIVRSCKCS
T1 sequence (Q86YC3 other isoform, or with tags, fused parts or gaps limits assumed, chain 2 of 2): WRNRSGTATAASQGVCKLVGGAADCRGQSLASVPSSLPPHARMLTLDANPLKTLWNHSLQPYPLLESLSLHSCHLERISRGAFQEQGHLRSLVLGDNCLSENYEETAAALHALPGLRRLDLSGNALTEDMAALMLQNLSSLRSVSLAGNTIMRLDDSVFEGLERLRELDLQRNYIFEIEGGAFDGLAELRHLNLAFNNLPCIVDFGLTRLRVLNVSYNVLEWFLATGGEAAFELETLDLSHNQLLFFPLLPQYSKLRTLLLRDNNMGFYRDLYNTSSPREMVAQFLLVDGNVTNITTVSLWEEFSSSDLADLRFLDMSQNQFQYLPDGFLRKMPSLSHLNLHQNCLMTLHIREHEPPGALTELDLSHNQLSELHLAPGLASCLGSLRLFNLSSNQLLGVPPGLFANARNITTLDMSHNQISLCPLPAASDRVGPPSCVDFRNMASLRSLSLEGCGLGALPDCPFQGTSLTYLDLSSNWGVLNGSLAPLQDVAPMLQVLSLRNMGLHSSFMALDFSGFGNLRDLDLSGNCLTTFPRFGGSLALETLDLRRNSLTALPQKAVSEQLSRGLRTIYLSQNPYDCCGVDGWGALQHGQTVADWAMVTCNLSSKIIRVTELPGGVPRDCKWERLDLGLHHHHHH
protocolSummary: BLI (Octet)
Measured pKd values are reported for all entries that follow.
When answering, recall that pKd equals minus log10 of the concentration in mol/L, and write that number alone.

Consider the following illustrative entries.
What the record says about Ab22 (antibody, IgG4, V domains shown) VH: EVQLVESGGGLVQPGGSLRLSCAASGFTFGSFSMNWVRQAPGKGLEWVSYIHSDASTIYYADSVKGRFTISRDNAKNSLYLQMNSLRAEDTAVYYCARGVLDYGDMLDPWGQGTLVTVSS VL: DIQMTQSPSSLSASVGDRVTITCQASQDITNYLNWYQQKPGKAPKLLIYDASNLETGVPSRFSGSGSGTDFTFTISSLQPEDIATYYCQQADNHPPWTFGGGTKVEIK : pKd is 9.38

What the record says about Ab23 (antibody, V domains shown) VH: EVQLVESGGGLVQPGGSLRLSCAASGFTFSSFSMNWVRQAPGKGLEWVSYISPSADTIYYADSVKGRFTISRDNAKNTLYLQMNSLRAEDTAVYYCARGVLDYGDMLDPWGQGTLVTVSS VL: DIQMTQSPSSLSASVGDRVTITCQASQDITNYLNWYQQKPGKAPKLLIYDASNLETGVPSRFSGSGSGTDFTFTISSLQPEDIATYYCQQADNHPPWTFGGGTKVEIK : pKd is 9.34

What the record says about Ab26 (antibody, IgG4, V domains shown) VH: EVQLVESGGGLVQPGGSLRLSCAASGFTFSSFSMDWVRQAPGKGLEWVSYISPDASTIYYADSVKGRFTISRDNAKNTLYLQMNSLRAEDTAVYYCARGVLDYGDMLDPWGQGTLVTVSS VL: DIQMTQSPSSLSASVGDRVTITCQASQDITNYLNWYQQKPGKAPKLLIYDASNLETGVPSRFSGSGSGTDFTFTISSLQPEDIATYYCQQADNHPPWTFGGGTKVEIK : pKd is 9.44

What the record says about Ab20 (antibody, IgG4, V domains shown) VH: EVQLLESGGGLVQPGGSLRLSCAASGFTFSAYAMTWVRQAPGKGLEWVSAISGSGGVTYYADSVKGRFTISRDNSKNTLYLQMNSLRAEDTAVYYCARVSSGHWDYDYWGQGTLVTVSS VL: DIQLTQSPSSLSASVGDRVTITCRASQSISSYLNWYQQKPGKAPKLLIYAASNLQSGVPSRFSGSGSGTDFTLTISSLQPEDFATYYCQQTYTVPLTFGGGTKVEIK : pKd is 9.26

Next:
What the record says about Ab15 (antibody, V domains shown) VH: EVQLVESGGGVVQPGRSLRLSCAASGFTFSDYAMVWVRQAPGKGLEWVSAISGSGFTTYYADSVKGRFTISRDNSKNTLYLQMNSLRAEDTAVYYCARVSSGHWDFDYWGQGTLVTVSS VL: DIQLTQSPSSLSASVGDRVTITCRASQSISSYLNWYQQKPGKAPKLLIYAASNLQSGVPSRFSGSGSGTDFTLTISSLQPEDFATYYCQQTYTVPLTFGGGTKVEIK : pKd is 9.15

Attribution: patent US20250215072A1
